Tgt: HA of influenza B virus B/Florida/04/2006 (live virus) (influenza B virus B/Florida/04/2006)
Test protocol: cell-based or functional assay
Readout kind: HI titers (µg/mL)
Answers are plain numbers, in µg/mL.

IN: # HI titers lookup, item CR11038 (antibody, V domains shown) VH: EVQLVESGAEVKKPGASVKVSCKASGYAFTSYYLHWVRQAPGQGLEWMGIMNPHGGSTTYAQKFQGRVTMTRDTSTSTVYMELSSLRSEDTAVYYCARESPDSSGYPGYYGMDVWGQGTTVTVSS VL: SYELTQPPSASGTPGQRVTMSCSGSRSNIGSNPVSWFQQLPGMVPKLLIYTNDQRPSGVPDRFSGSKSGPSASLAISGLQSEDEADYYCAAWDDSLKGWVFGGGTKLTVL
OUT: 1.25
